# STUDY_SYSTEM: T1, TipAL F123A (Streptomyces lividans, UniProt P0A4T9 1-253, F123A)
# T1 sequence: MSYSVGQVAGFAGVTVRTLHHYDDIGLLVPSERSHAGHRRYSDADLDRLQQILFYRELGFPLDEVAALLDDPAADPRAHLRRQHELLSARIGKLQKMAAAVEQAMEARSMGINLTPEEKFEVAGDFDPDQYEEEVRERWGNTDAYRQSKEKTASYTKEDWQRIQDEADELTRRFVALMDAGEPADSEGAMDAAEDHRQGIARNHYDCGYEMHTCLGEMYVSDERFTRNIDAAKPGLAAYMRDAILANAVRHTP
# EXPERIMENT_NOTES: fluorescence polarization; thiostrepton 1:1; 20 mM Tris-HCl pH 7.5, 200 mM NaCl, 5% (v/v) glycerol, 298 K; 10 nM labeled DNA
# CONDITIONS: protein: recombinant; tags: His6 (pET-28a); chain copies: 2; label: 5'-carboxyfluorescein; blunt
OBSERVATION_TYPE: Kd
The reply should read as a number followed by its unit.

Endpoint output: Kd of ptipA (dsDNA) DNA 1: TTGCACCTCACGTCACGTGAGGAGGC DNA 2: GCCTCCTCACGTGACGTGAGGTGCAA . Value? 228 nM
